- system: 5-LOX enzyme (Homo sapiens, UniProt P09917)
- Construct: purchased Cayman Chemical K980-100
- Sequence (P09917 whole entry): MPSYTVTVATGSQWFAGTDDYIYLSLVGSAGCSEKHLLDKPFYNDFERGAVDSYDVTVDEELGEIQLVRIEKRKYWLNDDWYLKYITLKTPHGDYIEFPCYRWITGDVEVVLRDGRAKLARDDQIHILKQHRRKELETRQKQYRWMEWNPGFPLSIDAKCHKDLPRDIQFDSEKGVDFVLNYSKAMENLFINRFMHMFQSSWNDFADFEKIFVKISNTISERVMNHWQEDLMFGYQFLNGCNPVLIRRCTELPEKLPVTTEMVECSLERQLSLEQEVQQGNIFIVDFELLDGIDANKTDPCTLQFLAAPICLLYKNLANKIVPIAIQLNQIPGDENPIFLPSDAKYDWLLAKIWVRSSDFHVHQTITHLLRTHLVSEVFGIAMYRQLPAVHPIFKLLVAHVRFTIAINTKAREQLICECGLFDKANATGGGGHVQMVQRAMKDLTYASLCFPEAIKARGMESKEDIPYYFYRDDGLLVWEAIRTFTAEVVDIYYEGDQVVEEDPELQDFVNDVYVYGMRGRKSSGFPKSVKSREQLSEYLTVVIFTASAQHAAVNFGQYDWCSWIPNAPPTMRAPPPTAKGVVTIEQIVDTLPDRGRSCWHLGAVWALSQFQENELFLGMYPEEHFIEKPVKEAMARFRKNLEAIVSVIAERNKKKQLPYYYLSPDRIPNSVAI
- assay.protocol: 5-LOX inhibition, Human Lipoxygenase Inhibitor Screening Assay (EIA) kit
- Assay type: biochemical
- run.parameters: conc 100 (μM)
Could you please report measured 5-LOX %inh for the items listed next?
I'd appreciate it if you wrote the number followed by its unit.

{"columns": ["molecule", "5-LOX %inh"],
 "data": [
  ["CC(c1cc2ccccc2s1)N(O)C(N)=O (stereo not shown) [Zileuton, reference compound]", "92.8%"]
]}

Give 5-LOX %inh for all molecules that follow.
1. CS(=O)(=O)n1cc(/C=N/NC(N)=S)c2ccccc21 [Compound 4a]
2. CS(=O)(=O)n1cc(/C=N/NC(=S)Nc2ccccc2)c2ccccc21 [Compound 4c]
3. CCNC(=S)N/N=C/c1cn(S(C)(=O)=O)c2ccccc12 [Compound 4b]
4. CCN1CC(=O)S/C1=N\N=C\c1cn(S(C)(=O)=O)c2ccccc12 [Compound 5b]
5. COc1ccc(NC(=S)N/N=C/c2cn(S(C)(=O)=O)c3ccccc23)cc1 [Compound 4e]

Response:
1: 90.3%; 2: 83.8%; 3: 70.1%; 4: 73.1%; 5: 85%

Give 5-LOX %inh for all molecules that follow.
1. CS(=O)(=O)n1cc(/C=N/N=C2\SC(=O)CN2c2ccccc2)c2ccccc21 [Compound 5c]
2. CS(=O)(=O)n1cc(/C=N/NC(N)=O)c2ccccc21 [Compound 3a]
3. Cc1ccc(NC(=S)N/N=C/c2cn(S(C)(=O)=O)c3ccccc23)cc1 [Compound 4d]
4. CS(=O)(=O)n1cc(/C=N/N=C2/NCC(=O)S2)c2ccccc21 [Compound 5a]
5. Cc1ccc(N2C(=O)CSC2=NN=Cc2cn(S(C)(=O)=O)c3ccccc23)cc1 [Compound 5d]

Response:
1: 66.7%; 2: 70.3%; 3: 77.2%; 4: 79%; 5: 86.9%

Give 5-LOX %inh for all molecules that follow.
1. COc1ccc(N2CC(=O)S/C2=N\N=C\c2cn(S(C)(=O)=O)c3ccccc23)cc1 [Compound 5e]
2. CS(=O)(=O)n1cc(/C=N/NC(=O)Nc2ccccc2)c2ccccc21 [Compound 3b]

Response:
["80.8%", "78.4%"]

###

- system: ovine COX-1 (Ovis aries)
- Sequence (P05979 25-600): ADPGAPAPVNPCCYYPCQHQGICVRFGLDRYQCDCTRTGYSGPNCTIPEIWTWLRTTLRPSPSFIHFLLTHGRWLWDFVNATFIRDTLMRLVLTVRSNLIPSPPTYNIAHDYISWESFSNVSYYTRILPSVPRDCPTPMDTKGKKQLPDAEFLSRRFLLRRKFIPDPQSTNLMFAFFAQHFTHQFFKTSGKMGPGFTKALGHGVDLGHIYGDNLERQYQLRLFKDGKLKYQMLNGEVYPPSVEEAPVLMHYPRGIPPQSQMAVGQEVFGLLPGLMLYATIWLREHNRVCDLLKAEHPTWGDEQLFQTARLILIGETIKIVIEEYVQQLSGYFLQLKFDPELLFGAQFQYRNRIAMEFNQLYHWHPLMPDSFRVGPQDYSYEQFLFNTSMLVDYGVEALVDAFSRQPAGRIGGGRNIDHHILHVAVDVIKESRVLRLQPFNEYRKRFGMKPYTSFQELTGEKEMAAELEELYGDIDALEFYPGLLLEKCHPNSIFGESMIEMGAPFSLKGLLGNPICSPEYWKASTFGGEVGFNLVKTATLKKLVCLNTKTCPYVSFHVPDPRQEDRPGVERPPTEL
- assay.protocol: COX-1 inhibition, enzyme immune assay (EIA) kit
- run.parameters: conc 0.1 (μM)
Could you please report measured COX1 %inh for the items listed next?
One number for each entry, in %.

// below: answered compounds
{"columns": ["line.notation", "endpoint.value"],
 "data": [
  ["Cc1ccc(NC(=S)N/N=C/c2cn(S(C)(=O)=O)c3ccccc23)cc1", 7.22],
  ["CS(=O)(=O)n1cc(/C=N/NC(N)=O)c2ccccc21", 4.87]
]}

Below: the item to evaluate.
CCNC(=S)N/N=C/c1cn(S(C)(=O)=O)c2ccccc12 has a reported COX1 %inh of 3.74

###

- system: UniProtKB P79208
- Sequence (P79208 17-603): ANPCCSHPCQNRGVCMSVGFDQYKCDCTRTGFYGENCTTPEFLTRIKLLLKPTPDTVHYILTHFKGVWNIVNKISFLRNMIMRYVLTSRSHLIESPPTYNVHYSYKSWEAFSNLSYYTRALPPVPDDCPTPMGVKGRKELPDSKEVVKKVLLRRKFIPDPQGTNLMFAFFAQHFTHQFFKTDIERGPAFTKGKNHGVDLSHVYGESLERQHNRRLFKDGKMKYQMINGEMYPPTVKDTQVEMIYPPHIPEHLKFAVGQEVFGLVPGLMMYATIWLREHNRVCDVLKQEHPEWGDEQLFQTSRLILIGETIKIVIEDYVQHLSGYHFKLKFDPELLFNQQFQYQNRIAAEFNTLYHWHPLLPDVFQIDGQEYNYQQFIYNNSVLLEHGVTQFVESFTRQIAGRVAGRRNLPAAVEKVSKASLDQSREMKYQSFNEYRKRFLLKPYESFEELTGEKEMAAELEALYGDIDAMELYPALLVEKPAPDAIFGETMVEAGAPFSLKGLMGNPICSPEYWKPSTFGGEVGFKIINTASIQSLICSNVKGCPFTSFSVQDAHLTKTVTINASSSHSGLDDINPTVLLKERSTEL
- assay.protocol: COX-2 inhibition, enzyme immune assay (EIA) kit
- Type: biochemical, ovine
- run.parameters: lab report, COX1/COX2
test.readout: SI
Give bare numbers.

// below: answered compounds
{"columns": ["line.notation", "SI"],
 "data": [
  ["COc1ccc(N2CC(=O)S/C2=N\\N=C\\c2cn(S(C)(=O)=O)c3ccccc23)cc1", 9.726],
  ["CCN1CC(=O)S/C1=N\\N=C\\c1cn(S(C)(=O)=O)c2ccccc12", 0.249]
]}

Below: the item to evaluate.
Cc1ccc(N2C(=O)CSC2=NN=Cc2cn(S(C)(=O)=O)c3ccccc23)cc1 has a reported SI of 8.596
